assay.system: TLR7 (Homo sapiens)
Construct: lymphocytes, monocytes and dendritic cells that express TLR7, TLR8 and TLR9; endogenous in cells; host or cells: human PBMCs from healthy donors
Sequence (Q9NYK1 27-1049): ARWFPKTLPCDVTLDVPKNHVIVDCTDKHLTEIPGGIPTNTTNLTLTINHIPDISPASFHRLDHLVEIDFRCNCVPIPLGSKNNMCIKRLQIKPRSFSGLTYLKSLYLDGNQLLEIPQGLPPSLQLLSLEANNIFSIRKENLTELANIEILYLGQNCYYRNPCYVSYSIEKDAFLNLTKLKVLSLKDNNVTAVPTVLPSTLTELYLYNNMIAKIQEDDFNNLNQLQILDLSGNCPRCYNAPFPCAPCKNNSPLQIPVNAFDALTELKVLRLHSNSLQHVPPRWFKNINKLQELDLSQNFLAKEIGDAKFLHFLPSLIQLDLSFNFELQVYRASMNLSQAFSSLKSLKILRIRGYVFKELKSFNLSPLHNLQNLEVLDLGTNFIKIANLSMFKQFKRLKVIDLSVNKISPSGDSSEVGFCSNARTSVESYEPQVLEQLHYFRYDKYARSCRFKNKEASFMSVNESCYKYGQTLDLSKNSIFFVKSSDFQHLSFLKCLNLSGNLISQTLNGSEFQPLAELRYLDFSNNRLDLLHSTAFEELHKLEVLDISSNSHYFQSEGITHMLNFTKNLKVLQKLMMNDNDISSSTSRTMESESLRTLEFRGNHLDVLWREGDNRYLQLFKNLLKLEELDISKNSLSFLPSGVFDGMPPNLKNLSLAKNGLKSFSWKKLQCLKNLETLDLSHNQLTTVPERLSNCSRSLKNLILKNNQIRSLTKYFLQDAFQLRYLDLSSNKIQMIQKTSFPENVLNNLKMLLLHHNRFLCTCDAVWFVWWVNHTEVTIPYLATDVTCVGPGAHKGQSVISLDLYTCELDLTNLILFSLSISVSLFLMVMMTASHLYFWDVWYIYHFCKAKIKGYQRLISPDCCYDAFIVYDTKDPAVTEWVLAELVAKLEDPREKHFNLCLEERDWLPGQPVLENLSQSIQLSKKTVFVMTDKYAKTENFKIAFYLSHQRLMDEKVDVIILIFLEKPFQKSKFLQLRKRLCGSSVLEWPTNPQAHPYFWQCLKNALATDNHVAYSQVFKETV
assay.remarks: Human PBMC cell-based assay, TLR7 agonist GS-986 stimulation, cytokine (IL-6 and IFNα) readout
conditions: human PBMCs, GS-986 400 nM, 6 hours; Table 26; read-out: TLR-7 EC50
readout.kind: pEC50
pEC50 is defined as minus the log10 of a concentration measured in mol/L.

Would you please look over these solved cases?
{"compound": "Cc1cc(-c2[nH]c3cc(-c4nc(C5CCNCC5)cs4)ccc3c2C)cc(C)n1 [Example 186]", "pEC50": 6.92}
{"compound": "Cc1cc(-c2[nH]c3cc(-c4ccc(N5CCN(CC(C)O)CC5)nc4)ccc3c2C)cc(C)n1 (centres unmarked) [Example 118]", "pEC50": 8.24}
{"compound": "Cc1cc(-c2[nH]c3cc(-c4ccc(N5CCC[C@@H](N)C5)nc4)ccc3c2C)cc(C)n1 [Example 25]", "pEC50": 8.23}

Request: Name the reported pEC50 value associated with the compound Cc1cc(-c2[nH]c3cc(-c4cccc(C(=O)N5CCNCC5)c4)ccc3c2C)cc(C)n1 [Example 12]
Result: 6.99

Request: Form field: reported pEC50 of Cc1cc(-c2[nH]c3cc(-c4ccc5nc([C@H]6CCCCN6)[nH]c5c4)ccc3c2C)cc(C)n1 [Example 164]
Result: 7.64

Request: Need pEC50 of CCc1c(-c2cc(C)nc(C)c2)[nH]c2cc(-c3ccc(N4CCNCC4)nc3)ccc12 [Example 70] , thanks.
Result: 8.17

Request: If you can, please state the reported pEC50 value of Cc1c(-c2cc(C#N)c(=O)n(C)c2)[nH]c2cc(-c3ccc(N4CCNCC4)nc3)ccc12 [Example 93] .
Result: 6.69

Request: Quick one: pEC50 for Cc1cc(-c2[nH]c3cc(-c4cnn5c4CNCC5)ccc3c2C)cc(C)n1 [Example 10] ?
Result: 6.68

###

Listed below: pEC50 values for each entry.
assay.system: TLR9 (Homo sapiens)
Construct: lymphocytes, monocytes and dendritic cells that express TLR7, TLR8 and TLR9; endogenous in cells; host or cells: human PBMCs from healthy donors
Sequence (Q9NR96 26-1032): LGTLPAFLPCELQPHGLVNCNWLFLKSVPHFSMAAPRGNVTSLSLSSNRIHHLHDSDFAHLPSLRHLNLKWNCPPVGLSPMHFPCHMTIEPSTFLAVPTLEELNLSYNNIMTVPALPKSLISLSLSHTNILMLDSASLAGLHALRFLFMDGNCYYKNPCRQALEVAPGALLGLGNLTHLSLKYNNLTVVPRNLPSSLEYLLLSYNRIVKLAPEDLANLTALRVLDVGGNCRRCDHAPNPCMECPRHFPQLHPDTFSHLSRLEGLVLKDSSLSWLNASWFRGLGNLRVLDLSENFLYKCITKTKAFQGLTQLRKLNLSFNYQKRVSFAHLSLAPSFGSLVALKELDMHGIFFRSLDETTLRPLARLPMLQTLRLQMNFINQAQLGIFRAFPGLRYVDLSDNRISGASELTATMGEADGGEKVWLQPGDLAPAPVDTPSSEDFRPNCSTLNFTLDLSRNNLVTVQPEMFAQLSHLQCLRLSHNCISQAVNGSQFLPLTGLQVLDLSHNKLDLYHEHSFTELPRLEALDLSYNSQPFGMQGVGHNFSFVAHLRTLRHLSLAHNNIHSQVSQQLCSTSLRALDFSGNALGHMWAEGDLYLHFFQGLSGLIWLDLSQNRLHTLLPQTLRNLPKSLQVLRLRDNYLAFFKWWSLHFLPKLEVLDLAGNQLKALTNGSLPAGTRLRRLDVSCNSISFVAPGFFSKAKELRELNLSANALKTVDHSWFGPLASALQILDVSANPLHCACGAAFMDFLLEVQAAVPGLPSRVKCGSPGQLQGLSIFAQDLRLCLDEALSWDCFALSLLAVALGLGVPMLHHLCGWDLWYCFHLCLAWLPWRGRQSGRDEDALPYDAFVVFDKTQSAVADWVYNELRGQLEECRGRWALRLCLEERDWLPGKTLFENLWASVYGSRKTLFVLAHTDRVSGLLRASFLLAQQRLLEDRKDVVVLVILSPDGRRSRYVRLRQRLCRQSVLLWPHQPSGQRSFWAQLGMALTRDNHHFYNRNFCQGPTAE
assay.remarks: Human PBMC cell-based assay, TLR9 agonist ODN-2216 stimulation, cytokine (IL-6 and IFNα) readout
conditions: human PBMCs, ODN-2216 3 μM, 6 hours; Table 26; read-out: TLR-9 EC50
Text: Human peripheral blood mononuclear cells (PBMCs) consist of lymphocytes, monocytes and dendritic cells that express TLR7, TLR8 and TLR9. These cells respond to TLR7, TLR8 and TLR9 ligand stimulation and produce cytokines and chemokines in vitro and in vivo. Human PBMCs are therefore suitable to be used in a cell-based assay to assess the in vitro potency of a TLR 7, 8, and/or 9 antagonist. […]
For clarity, pEC50 is expressed as the negative log10 of concentration in mol/L.

Some molecules with known pEC50 results, for comparison:
{"molecule": "COc1cc(-c2[nH]c3cc(-c4ccc(N5CCNCC5)nc4)ccc3c2C)cc(C)n1", "pEC50": 6.00}
{"molecule": "Cc1cc(-c2[nH]c3cc(-c4ccc(N5CCN(C(=O)CN(C)C)CC5)nc4)ccc3c2C)cc(C)n1", "pEC50": 7.74}
{"molecule": "Cc1cc(-c2[nH]c3cc(-c4ccc(N5CCNCC5)nc4)ccc3c2C)ccn1", "pEC50": 6.99}

Note: attention shifts to another entry.
Request: Quick one: pEC50 for Cc1cc(-c2[nH]c3cc(-c4ccc(N5CCN(C(=O)[C@H]6COCCN6)CC5)nc4)ccc3c2C)cc(C)n1 ?
Result: 7.23

###

EC50 values for the compounds below.
assay.system: TLR9 (Homo sapiens)
Construct: lymphocytes, monocytes and dendritic cells that express TLR7, TLR8 and TLR9; endogenous in cells; host or cells: human PBMCs from healthy donors
assay.remarks: Human PBMC cell-based assay, TLR9 agonist ODN-2216 stimulation, cytokine (IL-6 and IFNα) readout
conditions: human PBMCs, ODN-2216 3 μM, 6 hours; Table 26; read-out: TLR-9 EC50
Please state the figure in nM; there is no need to write the unit.

Request: Find EC50 (TLR9 (Homo sapiens)) for the entry Cc1cc(-c2[nH]c3cc(-c4ccc(N5CC[C@@H](N)C5)nc4)ccc3c2C)cc(C)n1
Result: 13.5

Request: Recorded EC50 for CCc1c(-c2cc(C)c3ncnn3c2)[nH]c2cc(C3CCNCC3)ccc12 with TLR9 (Homo sapiens), please?
Result: 1920

Request: Record lookup: for TLR9 (Homo sapiens), what EC50 belongs to Cc1cc(-c2[nH]c3cc(-c4ccc(N5CCN(C(=O)CN)CC5)nc4)ccc3c2C)cc(C)n1 ?
Result: 119

Request: GET /values?readout=EC50&system=TLR9 (Homo sapiens)&item= Cc1cc(-c2[nH]c3cc(-c4cccc(C(=O)N5CCN6CCC5C6)c4)ccc3c2C)cc(C)n1 (centres unmarked)
Result: 74.7

###

assay.system: TLR7 (Homo sapiens, UniProt Q9NYK1)
Construct: lymphocytes, monocytes and dendritic cells that express TLR7, TLR8 and TLR9; endogenous in cells; host or cells: human PBMCs from healthy donors
Sequence (Q9NYK1 27-1049): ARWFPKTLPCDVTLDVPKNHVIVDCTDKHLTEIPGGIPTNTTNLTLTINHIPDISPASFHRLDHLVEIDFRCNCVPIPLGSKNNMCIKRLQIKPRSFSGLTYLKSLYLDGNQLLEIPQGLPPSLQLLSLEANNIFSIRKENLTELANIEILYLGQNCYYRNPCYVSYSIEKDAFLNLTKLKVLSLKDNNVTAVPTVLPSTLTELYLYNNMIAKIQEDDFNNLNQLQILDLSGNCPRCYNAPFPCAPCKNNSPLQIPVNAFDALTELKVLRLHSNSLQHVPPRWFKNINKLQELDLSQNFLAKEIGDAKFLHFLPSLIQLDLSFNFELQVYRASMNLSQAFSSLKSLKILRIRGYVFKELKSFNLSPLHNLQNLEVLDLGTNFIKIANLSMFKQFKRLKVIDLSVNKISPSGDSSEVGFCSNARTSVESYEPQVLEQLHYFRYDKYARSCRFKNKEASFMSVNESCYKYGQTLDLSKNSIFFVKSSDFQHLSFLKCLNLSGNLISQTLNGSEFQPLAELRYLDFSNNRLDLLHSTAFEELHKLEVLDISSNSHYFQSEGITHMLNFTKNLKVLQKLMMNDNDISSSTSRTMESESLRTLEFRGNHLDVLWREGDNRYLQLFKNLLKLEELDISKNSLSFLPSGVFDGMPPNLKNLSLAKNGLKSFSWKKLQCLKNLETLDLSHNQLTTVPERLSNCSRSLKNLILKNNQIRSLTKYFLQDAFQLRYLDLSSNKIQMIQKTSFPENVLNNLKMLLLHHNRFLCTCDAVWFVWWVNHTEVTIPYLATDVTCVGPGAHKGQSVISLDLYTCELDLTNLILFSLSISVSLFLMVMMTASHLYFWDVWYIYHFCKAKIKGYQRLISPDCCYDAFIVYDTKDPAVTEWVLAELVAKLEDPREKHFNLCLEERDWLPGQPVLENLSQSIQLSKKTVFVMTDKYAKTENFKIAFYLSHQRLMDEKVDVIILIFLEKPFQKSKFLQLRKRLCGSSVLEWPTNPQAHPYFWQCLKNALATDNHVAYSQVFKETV
assay.remarks: Human PBMC cell-based assay, TLR7 agonist GS-986 stimulation, cytokine (IL-6 and IFNα) readout
conditions: human PBMCs, GS-986 400 nM, 6 hours; Table 26; read-out: TLR-7 EC50
readout.kind: pEC50
// scale note: pEC50 = -log10(conc_M); give the bare number

Example results:
{"test.smiles": "Cc1cc(-c2[nH]c3cc(-c4cnc5c(c4)CNCC5)ccc3c2C)cc(C)n1", "assay.system": "TLR7 (Homo sapiens, UniProt Q9NYK1)", "measured": 7.42}
{"test.smiles": "Cc1cc(-c2[nH]c3cc(-c4ccc(N5CCN(CC(C)(C)O)CC5)nc4)ccc3c2C)cc(C)n1", "assay.system": "TLR7 (Homo sapiens, UniProt Q9NYK1)", "measured": 7.84}
{"test.smiles": "Cc1cc(-c2[nH]c3cc(-c4ccc5c(c4)[nH]c(=O)n5C4CCNCC4)ccc3c2C)cc(C)n1", "assay.system": "TLR7 (Homo sapiens, UniProt Q9NYK1)", "measured": 6.77}
{"test.smiles": "Cc1cc(-c2[nH]c3cc(-c4ccc(N5CCN(CCN(C)C)CC5)nc4)ccc3c2C)cc(C)n1", "assay.system": "TLR7 (Homo sapiens, UniProt Q9NYK1)", "measured": 7.67}
{"test.smiles": "CCc1c(-c2cc(OC)c3ncnn3c2)[nH]c2cc(-c3ccc(N4CCNCC4)nc3)ccc12", "assay.system": "TLR7 (Homo sapiens, UniProt Q9NYK1)", "measured": 9.89}

Request: For COc1ccc(-c2[nH]c3cc(-c4ccc(N5CCNCC5)nc4)ccc3c2C)cc1OC , what is its reported pEC50?
Result: 7.46

Request: Returns the measured pEC50 for the input compound. Input: Cc1cc(-c2[nH]c3cc(-c4ccc(N5CCN(C(=O)[C@@H]6CNCCO6)CC5)nc4)ccc3c2C)cc(C)n1
Result: 7.23

Request: pEC50 for Cc1c(-c2cn(C)c(=O)n(C)c2=O)[nH]c2cc(-c3ccc(N4CCNCC4)nc3)ccc12 ?
Result: 6.98
